Hey, just so you know, these numbers are from ChEMBL document CHEMBL3988442.

Test system: Wolbachia pipientis
Assay Info: Anti-Wolbachia Cell-Based Screen
Assay type: functional
Design: scale not given: in the data most compounds retested in dose-response had high values
Assay Context: 5 µM
The whole screen tested about 48,000 compounds, of which about 13,000 (27%) showed an effect of 50% or more. This is one part of the list.
Attribute Measured: Percent Effect (%)
Provide the reading as a plain figure in %.

// worked examples, Percent Effect included
CCCn1nnc(NCc2ccccc2OCc2ccc(Cl)cc2)n1	104.8
CCOc1ccc(CNCCCn2ccnc2)cc1Br	7.125
CCOc1ccc(Cl)cc1CNCCCn1ccnc1	-4.437
c1ccc(OCc2ccncc2)c(CNC2CCc3ncnn3C2)c1 (stereo unspecified)	-0.3287
O=C(c1ccncc1F)N1CCc2ncnc(N3CCOCC3)c2CC1	22.92

-- ask Can you share its Percent Effect? I mean this compound: `Cn1nnc(NCc2ccccc2OCc2ccc(Cl)cc2)n1`
-- reply 119

----------
System: Wolbachia pipientis
Assay Info: Anti-Wolbachia Cell-Based Screen
Type: functional
Set-up: scale not given: in the data most compounds retested in dose-response had high values
Assay Context: 5 µM
In all, about 48,000 compounds went through this assay and about 13,000 (27%) showed an effect of 50% or more. The list shows a part of the results.
Recorded Percent Effect for the following compounds
Provide the reading as a plain figure in %.

-- ask Can you share its Percent Effect? I mean this compound: CCC(NC(=O)c1cccc(N2CCCC2=O)c1)c1ccc(OC)cc1 (configuration not stated)
-- reply -14.69

-- ask Try the compound `CCOCCn1nc(C)cc1C(=O)N1CC[C@](C)(O)C(C)(C)C1`
-- reply 2.862

-- ask Try the compound `CNc1cc(C)nc(N2CCC3(CC2)[C@H](O)C[C@@H]3OCCO)n1`
-- reply 4.937

-- ask Try the compound Cn1cccc1C(=O)Nc1cc(F)ccc1OCC1CCCO1 (configuration not stated)
-- reply -3.687

-- ask Try the compound `O=C(NC1CC1)N1Cc2[nH]nc(COc3cccnc3)c2C1.O=C(O)C(F)(F)F`
-- reply -0.5105

-- ask Try the compound `CC(=O)N1CCC(C(=O)N(CC(F)F)c2cccc(Cl)c2)CC1`
-- reply 3.709

-- ask Try the compound `O=C(CCCn1cncn1)NC1(c2cccc(Br)c2)CC1`
-- reply -89.93

-- ask Try the compound O=C(NCC(O)COc1ccc(F)cc1)C1(c2ccc(F)cc2)CC1 (configuration not stated)
-- reply 2.033

-- ask Try the compound `O=C(O)C(F)(F)F.O=C(O)C(F)(F)F.c1cncc(COCc2n[nH]c3c2CN(Cc2ccco2)C3)c1`
-- reply 1.979

-- ask Try the compound `CN1CCCN(C(=O)c2nnn(-c3ccc(C(F)(F)F)cc3)n2)CC1`
-- reply 20.55

-- ask Try the compound `OCCN1CCC(CNCc2cn(-c3ccccc3)nn2)CC1`
-- reply 3.58

-- ask Try the compound NC[C@H]1CC[C@H](C(NC(=O)C2CC2)c2ccccn2)CC1 (some centres not stated)
-- reply 117.5

-- ask Try the compound Cn1ccc(C(=O)Nc2cc(F)ccc2OCC2CCCO2)cc1=O (configuration not stated)
-- reply 108.3

----------
Test system: Wolbachia pipientis
Assay Info: Anti-Wolbachia Cell-Based Screen
Format: functional
Set-up: scale not given: in the data most compounds retested in dose-response had high values
Assay Context: 5 µM
About 13,000 (27%) of roughly 48,000 compounds showed an effect of 50% or more. This is one part of the list.
Attribute Measured: Percent Effect (%)
Provide the reading as a plain figure in %.

// worked examples, Percent Effect included
CSc1ccccc1CCC1CCS(=O)(=O)C1 (stereo not given)	-15.64
CN(C)CCOCC1CN(Cc2ccncc2)Cc2nnn(C)c21.O=C(O)C(F)(F)F.O=C(O)C(F)(F)F.O=C(O)C(F)(F)F (stereo not given)	96.02
CN(C)CCOCC1CN(Cc2ccccn2)Cc2nnn(C)c21.O=C(O)C(F)(F)F.O=C(O)C(F)(F)F.O=C(O)C(F)(F)F (stereo not given)	99.25

-- ask Can you share its Percent Effect? I mean this compound: Cn1nnc2c1C(COCC1CC1)CN(C(=O)Cc1ccsc1)C2 (stereo not given)
-- reply 2.514

-- ask Try the compound Cn1nnc2c1C(COCc1ccccn1)CN(C(=O)c1ccsc1)C2.O=C(O)C(F)(F)F (stereo not given)
-- reply -2.517

----------
Recorded Percent Effect for the following compounds
Tested on: Wolbachia pipientis
Assay Info: Anti-Wolbachia Cell-Based Screen
Type: functional
Parameters: scale not given: in the data most compounds retested in dose-response had high values
Assay Context: 5 µM
Among all 48,000 compounds or so, about 13,000 (27%) showed an effect of 50% or more. This is one part of the list.
Provide the reading as a plain figure in %.

// worked examples, Percent Effect included
CN1N=C(C(=O)N2CCCC(CCc3ccccc3F)C2)CCC1=O (configuration not stated)	-18.53
CC(C)CC(CNC(=O)NCc1cc[nH]n1)N1CCOCC1 (configuration not stated)	6.619
Cc1ccc(NC2CCN(C(=O)CCOCC(F)(F)F)CC2)nn1	69.22
COc1c(C2CCCN2C(=O)CCNc2ncccn2)c(C)nn1C (configuration not stated)	119.8
Cc1cc(NC(=O)NCC(C(C)C)N2CCOCC2)n(C)n1 (configuration not stated)	115.8

-- ask Can you share its Percent Effect? I mean this compound: COC1CCC(N(C)c2ccnc(N(C)C)n2)CC1 (configuration not stated)
-- reply 2.902

-- ask Try the compound Cc1nn(C)c(C)c1C1CCCN1C(=O)CCc1ccco1 (configuration not stated)
-- reply 103

-- ask Try the compound `Cc1cc(CN2CCc3c(CNc4ncccn4)cncc3C2)oc1C.Cl.Cl`
-- reply 20.89

----------
System: Wolbachia pipientis
Assay Info: Anti-Wolbachia Cell-Based Screen
Assay type: functional
Design: scale not given: in the data most compounds retested in dose-response had high values
Assay Context: 5 µM
Hit rate of the full screen: of about 48,000 compounds, about 13,000 (27%) showed an effect of 50% or more. Some of the results follow.
Attribute Measured: Percent Effect (%)
Provide the reading as a plain figure in %.

CS(=O)(=O)N1CC[C@H]2O[C@H](C(=O)NCCc3ccncc3)CC[C@H]21.O=C(O)C(F)(F)F	-5.225
Cc1ccc(CN2CC[C@H]3[C@H]2CCN3S(=O)(=O)C2CC2)s1.O=C(O)C(F)(F)F	-4.175
Cc1ccc(CN2CC[C@@H]3OCCN(Cc4ccncc4)[C@H]3CC2)s1.O=C(O)C(F)(F)F.O=C(O)C(F)(F)F.O=C(O)C(F)(F)F	91.24

Next:
-- ask Can you share its Percent Effect? I mean this compound: `Cc1ccc(CN2CC[C@H]3[C@H]2CCN3S(C)(=O)=O)s1.O=C(O)C(F)(F)F`
-- reply -3.604

----------
Tested on: Wolbachia pipientis
Assay Info: Anti-Wolbachia Cell-Based Screen
Type: functional
Parameters: scale not given: in the data most compounds retested in dose-response had high values
Assay Context: 5 µM
Out of some 48,000 compounds screened, about 13,000 (27%) showed an effect of 50% or more. The list shows a part of the results.
Attribute Measured: Percent Effect (%)
Provide the reading as a plain figure in %.

// worked examples, Percent Effect included
CN(Cc1ccsc1)C(=O)C1CCC(=O)N(Cc2ccccn2)C1 (stereo not given)	0.2635
CC(C)(NCC(=O)N1CCCC(C(N)=O)C1)c1ccc(Cl)cc1 (stereo not given)	1.343
CC(C)c1noc(-c2cccc(OCC(N)=O)c2)n1	109.4

-- ask Request: Percent Effect, test system Wolbachia pipientis, entry `CN(C)CCn1ccc(NC(=O)NC(C)(C)c2nccs2)n1`
-- reply 4.261

-- ask Try the molecule `O=C(CN1CCC(c2ccnn2CCO)CC1)NCc1cccs1`
-- reply -0.7289

-- ask Try the molecule `Cc1cnc(NCC(C)(C)N2CCOCC2)nc1`
-- reply -8.824

-- ask Try the molecule `CCc1nc(CCNc2ncccc2S(N)(=O)=O)sc1C`
-- reply -14.32

-- ask Try the molecule `Cn1nc2c(cc1=O)CN(Cc1nc(-c3ccoc3)no1)CC2`
-- reply -6.043

-- ask Try the molecule O=C(c1cccnc1N1CCOC(c2ccc(Cl)cc2)C1)N1CCCC1 (stereo not given)
-- reply 19.68

----------
Test system: Wolbachia pipientis
Assay Info: Anti-Wolbachia Cell-Based Screen
Type: functional
Set-up: scale not given: in the data most compounds retested in dose-response had high values
Assay Context: 5 µM
Among all 48,000 compounds or so, about 13,000 (27%) showed an effect of 50% or more. The list shows a part of the results.
Attribute Measured: Percent Effect (%)
Provide the reading as a plain figure in %.

COc1cc(C)nc(N2CCN(C(=O)CCc3ccncc3)CC2)n1	-15.67
Cc1ccc([C@@H]2CN(S(=O)(=O)N3CCC(C)CC3)C[C@H]2N(C)C)cc1	5.444
CN1CC(=O)N(c2cccnc2)CC12CCN(C(=O)c1cccn1C)C2.O=C(O)C(F)(F)F.O=C(O)C(F)(F)F (configuration not stated)	108.5
Cc1ncc2c(n1)CCN(Cc1nc(Cc3ccccc3)no1)C2	2.52
NC(=O)C1CCN(C(=O)CCCc2ccc(Cl)c(Cl)c2)CC1	-6.164

-- ask Can you share its Percent Effect? I mean this compound: Cc1oncc1C(=O)N1CCC2(C1)CN(c1cccnc1)C(=O)CN2C (configuration not stated)
-- reply -7.65

-- ask Try the compound Cc1cc(C(=O)N2CCC3(C2)CN(c2cccnc2)C(=O)CN3C)[nH]n1.O=C(O)C(F)(F)F.O=C(O)C(F)(F)F (configuration not stated)
-- reply 112

-- ask Try the compound `COc1cc(CCC(=O)N2CCC(c3cnccn3)CC2)on1`
-- reply 147.9

-- ask Try the compound `COc1cc(C)nc(N2CCN(C(=O)CCc3ccco3)CC2)n1`
-- reply 12.06

-- ask Try the compound `Cc1cc(C)n(C2CCN(S(C)(=O)=O)CC2)n1`
-- reply 88.3
